- target or system: Disintegrin and metalloproteinase domain-containing protein 17 (Homo sapiens, UniProt P78536)
- Sequence (P78536 whole entry, the tested form may be a part): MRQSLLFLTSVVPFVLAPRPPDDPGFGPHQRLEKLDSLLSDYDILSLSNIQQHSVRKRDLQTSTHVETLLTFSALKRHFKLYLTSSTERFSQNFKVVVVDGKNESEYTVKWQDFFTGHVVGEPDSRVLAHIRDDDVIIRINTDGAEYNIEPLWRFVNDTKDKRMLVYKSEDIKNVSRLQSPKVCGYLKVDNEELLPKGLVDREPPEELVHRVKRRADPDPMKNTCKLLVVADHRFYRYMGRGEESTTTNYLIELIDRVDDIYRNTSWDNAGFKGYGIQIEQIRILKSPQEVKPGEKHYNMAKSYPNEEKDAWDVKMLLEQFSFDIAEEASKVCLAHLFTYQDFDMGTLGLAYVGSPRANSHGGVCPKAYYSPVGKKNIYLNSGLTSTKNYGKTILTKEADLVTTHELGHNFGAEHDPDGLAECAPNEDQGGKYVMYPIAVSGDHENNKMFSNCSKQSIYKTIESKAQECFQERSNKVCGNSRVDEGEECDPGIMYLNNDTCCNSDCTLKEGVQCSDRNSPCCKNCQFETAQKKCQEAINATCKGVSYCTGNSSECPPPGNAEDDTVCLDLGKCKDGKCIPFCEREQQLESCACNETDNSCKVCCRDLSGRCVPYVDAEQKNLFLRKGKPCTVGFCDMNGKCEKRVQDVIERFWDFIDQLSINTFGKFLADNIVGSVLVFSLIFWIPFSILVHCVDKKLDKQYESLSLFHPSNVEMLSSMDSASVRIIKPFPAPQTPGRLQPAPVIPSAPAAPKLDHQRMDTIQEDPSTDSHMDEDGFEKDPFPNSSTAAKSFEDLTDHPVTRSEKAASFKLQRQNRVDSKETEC
measured quantity: Ki
Include the unit right after the number.

COc1ccc2c(c1)C(=O)N(C[C@@]1(c3ccc(-c4ccnc(N)c4)cc3)NC(=O)NC1=O)C2 :: 1.4 nM
O=C1NC(=O)[C@](CN2Cc3ccc(F)cc3C2=O)(c2ccc(-c3ccc(C(F)(F)F)cc3)cc2)N1 :: 18 nM
O=C1NC(=O)[C@](CN2Cc3ccc(F)cc3C2=O)(c2ccc(-c3c[nH]c(=O)c(Cl)c3)cc2)N1 :: 0.1 nM

// next item, Ki requested
Req: Look up Ki for this compound: COc1ccc2c(c1)C(=O)N(C[C@@]1(c3ccc(-c4cc(-c5ccccc5)no4)cc3)NC(=O)NC1=O)C2
Resp: 28 nM

###

- protocol notes: Oral bioavailability in rat at 10 mg/kg
- Type: ADME, organism-based
- condition: in vivo
Quick reference: bioavailability of the listed items.
Return type: number; implicit unit %.

Recorded bioavailability, per entry:
COc1ccc2c(c1)C(=O)N(C[C@@]1(c3ccc(-c4cnn(C)c4)cc3)NC(=O)NC1=O)C2 :: 18
COc1ccc2c(c1)C(=O)N(C[C@@]1(c3ccc(-c4cccnc4)cc3)NC(=O)NC1=O)C2 :: 14.1

Req: Look up bioavailability for this molecule: COc1ccc2c(c1)C(=O)N(C[C@@]1(c3ccc(-c4ccnc(C)c4)cc3)NC(=O)NC1=O)C2
Resp: 19

###

- target or system: Disintegrin and metalloproteinase domain-containing protein 17 (Homo sapiens, UniProt P78536)
Quick reference: Ki of the listed items.
Return type: number; implicit unit nM.

Recorded Ki, per entry:
O=C1NC(=O)[C@](CN2Cc3ccc(F)cc3C2=O)(c2ccc(-c3ccc(=O)[nH]c3)cc2)N1 :: 0.2
COc1ccc2c(c1)C(=O)N(C[C@@]1(c3ccc(-c4ccncc4)cc3)NC(=O)NC1=O)C2 :: 0.6
COc1ccc2c(c1)C(=O)N(C[C@@]1(c3ccc(Oc4ccncc4)cc3)NC(=O)NC1=O)C2 :: 7

// next item, Ki requested
Req: Look up Ki for this compound: COc1ccc2c(c1)C(=O)N(C[C@@]1(c3ccc(-c4nccs4)cc3)NC(=O)NC1=O)C2
Resp: 0.6

###

- protocol notes: Tmax in rat at 10 mg/kg, po
- Type: ADME, organism-based
- Parameters: dose 10 mg/kg, route oral
- condition: in vivo
Quick reference: Tmax of the listed items.
Return type: number; implicit unit h.

Recorded Tmax, per entry:
COc1ccc2c(c1)C(=O)N(C[C@@]1(c3ccc(-c4ccnc(C)c4)cc3)NC(=O)NC1=O)C2 :: 1.7
COc1ccc2c(c1)C(=O)N(C[C@@]1(c3ccc(-c4cnn(C)c4)cc3)NC(=O)NC1=O)C2 :: 2

// next item, Tmax requested
Req: Look up Tmax for this compound: COc1ccc2c(c1)C(=O)N(C[C@@]1(c3ccc(-c4cccnc4)cc3)NC(=O)NC1=O)C2
Resp: 0.58

###

- target or system: Disintegrin and metalloproteinase domain-containing protein 17 (Homo sapiens, UniProt P78536)
measured quantity: log10 of Ki (log10 of the value in nM)
Short version: log10 scale, Ki, nM.

COC(=O)c1ccc(-c2ccc([C@]3(CN4Cc5ccc(OC)cc5C4=O)NC(=O)NC3=O)cc2)cc1 :: 0.95

Req: Look up log10 of Ki for this molecule: COc1ccc2c(c1)C(=O)N(C[C@@]1(c3ccc(Oc4ccc5cnccc5c4)cc3)NC(=O)NC1=O)C2
Resp: 0.90

Req: Ok, now O=C1NC(=O)[C@](CN2Cc3ccc(F)cc3C2=O)(c2ccc(-c3ccc(F)cc3F)cc2)N1
Resp: 0.30

Req: Ok, now COc1ccc2c(c1)C(=O)N(C[C@@]1(c3ccc(-c4cncnc4)cc3)NC(=O)NC1=O)C2
Resp: -0.05

Req: Ok, now COc1ccc2c(c1)C(=O)N(C[C@@]1(c3ccc(-c4cccc(-c5csc(C)n5)c4)cc3)NC(=O)NC1=O)C2
Resp: 1.49

Req: Ok, now COc1ccc2c(c1)C(=O)N(C[C@@]1(c3ccc(-c4ccnc(C)c4)cc3)NC(=O)NC1=O)C2
Resp: -0.30

Req: Ok, now COc1ccc2c(c1)C(=O)N(C[C@@]1(c3ccc(C4(C)NC(=O)NC4=O)cc3)NC(=O)NC1=O)C2 (stereo partly drawn)
Resp: 0.41

Req: Ok, now COc1ccc2c(c1)C(=O)N(C[C@@]1(c3ccc(-c4ccc(C(N)=O)cc4)cc3)NC(=O)NC1=O)C2
Resp: 0.48

###

- protocol notes: AUC in rat at 10 mg/kg, po
- Type: ADME, organism-based
- Set-up: dose 10 mg/kg, route oral
- condition: plasma
measured quantity: AUC (µM·h)
Return type: number; implicit unit µM·h.

Recorded AUC, per entry:
COc1ccc2c(c1)C(=O)N(C[C@@]1(c3ccc(-c4cnn(C)c4)cc3)NC(=O)NC1=O)C2 :: 22.2
COc1ccc2c(c1)C(=O)N(C[C@@]1(c3ccc(-c4ccnc(C)c4)cc3)NC(=O)NC1=O)C2 :: 13

// next item, AUC requested
Req: Look up AUC for this compound: COc1ccc2c(c1)C(=O)N(C[C@@]1(c3ccc(-c4cccnc4)cc3)NC(=O)NC1=O)C2
Resp: 9.1

###

- protocol notes: Cmax in rat at 10 mg/kg, po
- Format: ADME, organism-based
- Parameters: dose 10 mg/kg, route oral
- condition: in vivo
measured quantity: Cmax (µM)
Return type: number; implicit unit µM.

Req: Look up Cmax for this compound: COc1ccc2c(c1)C(=O)N(C[C@@]1(c3ccc(-c4cnn(C)c4)cc3)NC(=O)NC1=O)C2
Resp: 4.45

Req: Ok, now COc1ccc2c(c1)C(=O)N(C[C@@]1(c3ccc(-c4cccnc4)cc3)NC(=O)NC1=O)C2
Resp: 2.96

Req: Ok, now COc1ccc2c(c1)C(=O)N(C[C@@]1(c3ccc(-c4ccnc(C)c4)cc3)NC(=O)NC1=O)C2
Resp: 3.3
